UniProt P41144 measurements of Ki, listed per entry.
Sequence (P41144 whole entry): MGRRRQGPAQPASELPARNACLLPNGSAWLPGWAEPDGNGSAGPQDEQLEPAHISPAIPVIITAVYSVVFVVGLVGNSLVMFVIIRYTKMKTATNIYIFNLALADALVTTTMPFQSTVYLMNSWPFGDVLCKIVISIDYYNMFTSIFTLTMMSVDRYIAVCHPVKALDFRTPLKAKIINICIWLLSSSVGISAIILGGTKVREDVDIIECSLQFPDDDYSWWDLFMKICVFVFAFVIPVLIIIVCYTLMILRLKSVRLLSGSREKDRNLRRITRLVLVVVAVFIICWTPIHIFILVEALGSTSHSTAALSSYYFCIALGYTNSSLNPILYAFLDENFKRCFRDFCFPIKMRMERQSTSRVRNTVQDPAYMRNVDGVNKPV

Molecule | Assay System | Unit | Ki
CC(C)Nc1ccc2c(c1)[C@@]1(C)CCN(CC3CC3)C(C2)[C@@H]1C (mixture of isomers) | UniProt P41144 | nM | 78
CCNc1ccc2c(c1)[C@@]1(C)CCN(CC3CC3)C(C2)[C@@H]1C (mixture of isomers) | UniProt P41144 | nM | 3.3
C[C@H]1C2Cc3ccc(N4CCCC4)cc3[C@@]1(C)CCN2CC1CC1 (mixture of isomers) | UniProt P41144 | nM | 410
C[C@H]1C2Cc3ccc(N(C)C)cc3[C@@]1(C)CCN2CC1CC1 (mixture of isomers) | UniProt P41144 | nM | 33
C[C@H]1C2Cc3ccc(N4CCN(C)CC4)cc3[C@@]1(C)CCN2CC1CC1 (mixture of isomers) | UniProt P41144 | nM | 8.8
C[C@H]1[C@H]2Cc3ccc(Nc4ccccc4)cc3[C@@]1(C)CCN2CC1CC1 (stereo in doubt; (+)-12) | UniProt P41144 | nM | 27
C[C@H]1[C@H]2Cc3ccc(Nc4ccccc4)cc3[C@@]1(C)CCN2CC1CC1 (stereo in doubt; (-)-11) | UniProt P41144 | nM | 0.54
C[C@H]1C2Cc3ccc(N)cc3[C@@]1(C)CCN2CC1CC1 (stereo in doubt; (-)-5) | UniProt P41144 | nM | 1.2
C[C@H]1C2Cc3ccc(N4CCOCC4)cc3[C@@]1(C)CCN2CC1CC1 (mixture of isomers) | UniProt P41144 | nM | 560
C[C@H]1C2Cc3ccc(N)cc3[C@@]1(C)CCN2CC1CC1 (mixture of isomers) | UniProt P41144 | nM | 4.1
C[C@H]1C2Cc3ccc(NCc4ccccc4)cc3[C@@]1(C)CCN2CC1CC1 (stereo in doubt; (-)-14) | UniProt P41144 | nM | 2.1
CNc1ccc2c(c1)[C@@]1(C)CCN(CC3CC3)C(C2)[C@@H]1C (mixture of isomers) | UniProt P41144 | nM | 8.5

Reference for the values: ChEMBL document CHEMBL1132763
